Target: Alkaline phosphatase, placental type (Homo sapiens) (UniProt P05187)
Sequence (P05187 whole entry, looked up): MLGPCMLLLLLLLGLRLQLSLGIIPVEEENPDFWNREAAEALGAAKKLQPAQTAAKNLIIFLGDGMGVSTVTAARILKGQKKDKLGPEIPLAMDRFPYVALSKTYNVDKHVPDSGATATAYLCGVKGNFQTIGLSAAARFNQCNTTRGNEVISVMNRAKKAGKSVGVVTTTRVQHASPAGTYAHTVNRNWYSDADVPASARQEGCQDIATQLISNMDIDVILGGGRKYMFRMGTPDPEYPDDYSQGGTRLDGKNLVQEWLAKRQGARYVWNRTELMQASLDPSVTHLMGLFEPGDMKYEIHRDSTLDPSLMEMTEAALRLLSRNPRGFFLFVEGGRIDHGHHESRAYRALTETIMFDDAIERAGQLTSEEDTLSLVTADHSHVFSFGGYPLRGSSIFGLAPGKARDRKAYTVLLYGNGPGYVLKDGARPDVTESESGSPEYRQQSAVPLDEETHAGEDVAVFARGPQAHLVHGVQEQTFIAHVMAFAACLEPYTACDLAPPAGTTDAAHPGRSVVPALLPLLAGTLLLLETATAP
Experiment: activation of human placental alkaline phosphatase – biochemical, luminescence, HTS (AID 696)
Conditions: purified PLAP enzyme, luminescent substrate read-out; at 20 µM
The campaign covered roughly 96,000 compounds. About 1,200 (1.2%) were called active. Rule as the data show it: active = activation fold above about 2; inactive = the rest. The list comes from a sample in which actives are over-represented; it also holds close analogues and randomly drawn compounds.
Thanks in advance; please answer with one of these: active, inactive

Here are 3 molecules together with their reported answers.
                                   molecule     label
0  O=C(CNC(=O)c1ccccc1)NCC(=O)OCc1ccc(Cl)cc1  inactive
1  O=C(Nc1ccc(-n2ccnc2P(=O)(O)c2ccccc2)cc1)c1ccccc1Br    active
2  Cc1ccc(C(=O)Nc2c(C#N)c(C)c(C)n2Cc2ccccc2)cc1  inactive

Query: Please let me know the test result on file for Cc1ccccc1C(OCC(O)CN1CCCCC1CCO)c1ccccc1 (stereo unspecified) .
Result: active

Query: Give the logged outcome of this assay for the following molecule: CCN(CC)C(=O)CSC1c2ccccc2C(=O)N1c1ccccc1 (stereo unspecified)
Result: inactive

Query: GET /call?item= CCOc1ccc2nc(N3CCCN(C(=O)Nc4ccccc4C)CC3)c(C#N)cc2c1 returns the recorded outcome of this test.
Result: active

---

Biological target: Alkaline phosphatase, placental type (Homo sapiens)
Experiment: activation of human placental alkaline phosphatase – biochemical, luminescence, HTS (AID 696)
Details: purified PLAP enzyme, luminescent substrate read-out; at 20 µM; active compounds read high
Hit rate of the full screen: of about 96,000 compounds, about 1,200 (1.2%) were called active. Only a selection was taken, and actives are over-represented in it overall.
Class (by activation fold) -- low (below 1), intermediate (1 to below 2), high (2 or more)

>>> print(df.to_string())
                           molecule         label
0  O=C(Nc1nnc(SCc2ccccc2)s1)c1ccco1  intermediate

Query: For this molecule, which bin applies? CCCCNc1ccc(C(=O)Nc2cccc(C)n2)cc1[N+](=O)[O-]
Result: low

Query: In plain terms, what class is COc1ccc(C2SCCN2S(=O)(=O)c2ccccc2)cc1OC (stereo not given) ?
Result: intermediate

Query: For the record COc1cc2c(cc1OC)C(C(=O)NCc1ccco1)C1c3ccccc3CCN1C2=O (stereo not given) , report the class its activation fold corresponds to.
Result: intermediate

Query: Exam item: assign C=CCNC(=S)NNc1ncnc2sc3c(c12)CC(C)(C)OC3 to the correct category.
Result: high

Query: // return the class label for CCCc1nnc(NC(=O)c2cccs2)s1
Result: low

Query: Band for CCN1CCC(=NNC(=O)c2ccc(C)c([N+](=O)[O-])c2)CC1 ?
Result: intermediate

Query: Bin this entry: COc1cc2c(cc1NC(=O)CN1CCN(S(=O)(=O)c3ccc(F)cc3)CC1)oc1ccccc12
Result: high

Query: // bin(item) where item = CCCc1nnc(NC(=O)CN2C(=O)c3ccccc3S2(=O)=O)s1
Result: high

Query: Class (by measured activation fold) for Cc1cccc(C)c1NC(=O)CSc1nnc(-c2ccccc2)n1Cc1ccc2c(c1)OCO2
Result: intermediate

Query: Sort CCCc1ccc(OCC(=O)NNC(=S)NC(=O)c2ccco2)cc1 into one of the categories.
Result: intermediate

Query: Category of CC(Oc1ccc2ccccc2c1)C(=O)NNC(=S)NC(=O)c1ccco1 (stereo not given) :
Result: high

Query: Just checking, what class would you give O=C(Nc1ncccn1)c1cccs1 here?
Result: low
